Reported melting point values for the following molecules.

Record excerpt, results attached:
| mol | endpoint value |
| --- | --- |
| CCC(=O)N(CCN(C)C)c1ccc(N/C(=C2\C(=O)Nc3ccc([N+](=O)[O-])cc32)c2ccccc2)cc1 | 263 to 265 °C |
| O=C1Nc2ccc([N+](=O)[O-])cc2/C1=C(/Nc1ccc(CCN2CCCCC2)cc1)c1ccccc1 | 236 to 237 °C |
| CN(C)CC(=O)NCc1cccc(N/C(=C2\C(=O)Nc3ccc([N+](=O)[O-])cc32)c2ccccc2)c1 | 171 to 173 °C |

Can you share its melting point? I mean this molecule: CN(C)CCN(c1ccc(N/C(=C2\C(=O)Nc3ccccc32)c2ccccc2)cc1)S(=O)(=O)c1ccccc1
241 to 243 °C

Param item: COCc1cccc(N/C(=C2\C(=O)Nc3ccccc32)c2ccccc2)c1
182 to 184 °C

Param item: CN(CC(=O)O)C(=O)c1cccc(N/C(=C2\C(=O)Nc3ccccc32)c2ccccc2)c1
218 to 220 °C

Param item: O=CNc1ccc(N/C(=C2\C(=O)Nc3ccc([N+](=O)[O-])cc32)c2ccccc2)cc1
355 to 356 °C (dec.)

Param item: CC(=O)NCC(=O)N(C)c1ccc(N/C(=C2\C(=O)Nc3ccccc32)c2ccccc2)cc1
255 to 256 °C
